target: Recombinant truncated stromelysin (human sequence) (Homo sapiens); experiment: Inhibition of stromelysin (cleavage of thiopeptide ester substrate, DTNB readout at 405 nm); conditions: 30 minute assay, ambient temperature, pH 6.5, thiopeptide ester substrate
Sequence (P08254 100-273 limits assumed): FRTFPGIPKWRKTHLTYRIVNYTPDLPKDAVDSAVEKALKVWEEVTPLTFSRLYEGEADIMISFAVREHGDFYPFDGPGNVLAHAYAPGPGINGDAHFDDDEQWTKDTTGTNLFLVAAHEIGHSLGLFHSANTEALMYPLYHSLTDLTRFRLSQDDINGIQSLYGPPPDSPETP
MEASURE: IC50 (nM)

compound="CN1C(=O)N(CCC(COc2ccc(-c3ccc(C#N)cc3)cc2)N(O)C=O)C(=O)C1(C)C (racemic) [Example 5]" number=17

Numbers sourced from patent US6294573A.
